# Assay: in vitro
# Recorded Conditions: human, hela cells, % viability
In this section, each of the compounds is paired with its reported viability at 28.5 h, 10 µM.
Numbers only here, please. The scale is %.

{"Smiles Notation": "N#Cc1cc2c([nH]c1=S)CCN(Cc1ccccc1)C2", "Display Unit": "%", "Test Value": 90.3}
{"Smiles Notation": "O=C(O)CCNS(=O)(=O)c1ccc2[nH]c(=O)[nH]c2c1", "Display Unit": "%", "Test Value": 91}

Incoming: Note viability at 28.5 h, 10 µM for the compound shown: CN(C)c1nc2c(c(=O)[nH]c(=O)n2C)n1Cc1cccc2ccccc12
Outgoing: 90.1

Incoming: Note viability at 28.5 h, 10 µM for the compound shown: Oc1cccc(-c2nccnc2NCc2cccs2)c1
Outgoing: 88.8

Values compiled from paper PMC12040169.
